Field: Potency. Provide a value for each of the molecules that follow.
# study_target: Histone-lysine N-methyltransferase EHMT2 (Homo sapiens) (UniProt Q96KQ7)
# Sequence (Q96KQ7 913-1193 limits assumed): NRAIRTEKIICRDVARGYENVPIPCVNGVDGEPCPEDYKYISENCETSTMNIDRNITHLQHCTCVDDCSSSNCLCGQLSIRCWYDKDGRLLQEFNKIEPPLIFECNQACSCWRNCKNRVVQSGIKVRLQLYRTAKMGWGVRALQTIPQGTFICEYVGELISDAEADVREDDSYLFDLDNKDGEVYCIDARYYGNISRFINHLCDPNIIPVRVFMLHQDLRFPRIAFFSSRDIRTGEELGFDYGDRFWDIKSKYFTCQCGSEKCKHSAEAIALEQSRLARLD
# experimental_details: qHTS Assay for Inhibitors of Histone Lysine Methyltransferase G9a; note: potency is the fitted concentration of half-maximal effect; nearly all actives have a fitted effect of over 75% in size
# condition_set: G9a H3K9 monomethylation, AlphaScreen, 2 h; series mostly up to 102 µM
Screen size: about 350,000 compounds; about 31,000 (8.9%) were called active. Another 15% or so got no clear call; they are omitted. Only a selection was taken, and actives are over-represented in it overall.

**Q:** Tell us which Potency value is on record for O=[N+]([O-])c1cnc2ccc3ccccc3c2c1
**A:** 50.1 µM (active)

**Q:** Tell us which Potency value is on record for CCOC(=O)C(NS(=O)(=O)c1ccc(C)cc1)(C(F)(F)F)P(=O)(OCC(C)C)OCC(C)C (configuration not stated)
**A:** 7.08 µM (active)

**Q:** Tell us which Potency value is on record for COc1cccc(N2C(=O)NC(=O)/C(=C\c3ccc([N+](=O)[O-])s3)C2=O)c1
**A:** 7.94 µM (active)

**Q:** Tell us which Potency value is on record for COc1cc(C(c2c(O)c3ccccc3oc2=O)c2c(C)n(C)n(-c3ccccc3)c2=O)ccc1O (configuration not stated)
**A:** 44.7 µM (active)

**Q:** Tell us which Potency value is on record for O=C(OCC1O[C@@H](OC(=O)c2cc(O)c(O)c(O)c2)[C@@H](OC(=O)c2cc(O)c(O)c(O)c2)[C@@H](OC(=O)c2cc(O)c(O)c(O)c2)[C@@H]1OC(=O)c1cc(O)c(O)c(O)c1)c1cc(O)c(O)c(O)c1 (some centres not stated)
**A:** 50.1 µM (active)

**Q:** Tell us which Potency value is on record for COc1ccc2c(c1O)-c1cccc3c1[C@@H](C2)N(C)CC3
**A:** 7.94 µM (active)

**Q:** Tell us which Potency value is on record for O=C1NC(=O)N(c2ccc(F)cc2)C(=O)/C1=C/c1ccc2c(c1)CCCN2Cc1ccccc1
**A:** 12.6 µM (active)

**Q:** Tell us which Potency value is on record for O=C(Nc1cccc2ccccc12)N1CCC2(CC1)OCCO2
**A:** 50.1 µM (active)

**Q:** Tell us which Potency value is on record for O=C(O)COc1ccccc1/C=C1\C(=O)NC(=O)N(CCC2=CCCCC2)C1=O
**A:** 50.1 µM (active)

**Q:** Tell us which Potency value is on record for CC(=O)c1ccc(-c2ccc(Cn3c(C)nc4cc(N)c(C)nc43)cc2)cc1
**A:** 15.8 µM (active)

**Q:** Tell us which Potency value is on record for CCOC(=O)C1CCN(Cc2coc3ccc(Cl)cc3c2=O)CC1
**A:** 3.16 µM (active)

**Q:** Tell us which Potency value is on record for CCOc1cc(N2CCOCC2)c(OCC)cc1NC(=O)C1=NN(c2cccc(C)c2)C(=O)CC1
**A:** 11.2 µM (active)

**Q:** Tell us which Potency value is on record for O=C1N=c2ccccc2=C/C1=C\c1c(O)[nH]c(=S)[nH]c1=O
**A:** 25.1 µM (active)

**Q:** Tell us which Potency value is on record for O=C1NC(=O)N(c2ccccc2)C(=O)/C1=C/c1ccc([N+](=O)[O-])s1
**A:** 8.91 µM (active)

**Q:** Tell us which Potency value is on record for COc1ccc(C(=O)CC2C(=O)N(C)C(=O)N(C)C2=O)cc1
**A:** 2.24 µM (active)

**Q:** Tell us which Potency value is on record for Cc1cc(/C=C2/C(=O)NC(=O)N(Cc3ccco3)C2=O)c(C)n1-c1ccc(C(=O)O)cc1
**A:** 35.5 µM (active)

**Q:** Tell us which Potency value is on record for O=C(NC(=S)N1C[C@H]2C[C@H](C1)c1cccc(=O)n1C2)c1ccc(F)cc1
**A:** 35.5 µM (active)

**Q:** Tell us which Potency value is on record for CN1CCc2nc(SC(C(=O)O)c3ccccc3)c(C#N)c(-c3cccs3)c2C1 (configuration not stated)
**A:** 31.6 µM (active)

**Q:** Tell us which Potency value is on record for COc1ccc(Br)cc1CNCCc1cccc(Cl)c1
**A:** 20 µM (active)

**Q:** Tell us which Potency value is on record for Cc1cccc(-n2c(O)c(C=NC34CN5CN(CN(C5)C3)C4)c(=O)[nH]c2=O)c1
**A:** 50.1 µM (active)

**Q:** Tell us which Potency value is on record for CN(c1ccccc1)c1ccc([N+](=O)[O-])c2nonc12
**A:** 15.8 µM (active)

**Q:** Tell us which Potency value is on record for CN(C)c1ccc(NC(=O)CN2C3CCCC2CC(NC(=O)c2ccccc2)C3)cc1 (configuration not stated)
**A:** 50.1 µM (active)

**Q:** Tell us which Potency value is on record for C[N+]12CN3CN(CN(C3)C1)C2
**A:** 1.12 µM (active)

**Q:** Tell us which Potency value is on record for CC[N+](C)(CC)CCC[n+]1c(-c2ccccc2)c2cc(N)ccc2c2ccc(N)cc21
**A:** 5.01 µM (active)

**Q:** Tell us which Potency value is on record for O=S(=O)(Nc1ccc2[nH]ncc2c1)c1ccccc1Cl
**A:** 22.4 µM (active)

**Q:** Tell us which Potency value is on record for O=C1NC(=O)N(Cc2ccco2)C(=O)/C1=C\c1ccc(-c2ccc(F)cc2)o1
**A:** 12.6 µM (active)

**Q:** Tell us which Potency value is on record for O=C(COc1ccc2ccccc2c1)N1CCN(Cc2ccncc2)CC1
**A:** 6.31 µM (active)

**Q:** Tell us which Potency value is on record for Cc1cc2ccccn2c1C(C[N+](=O)[O-])c1c(F)cccc1Cl (configuration not stated)
**A:** 44.7 µM (active)

**Q:** Tell us which Potency value is on record for COc1ccc(CNCCc2ccc3c(c2)OCO3)c(OC)c1OC
**A:** 8.91 µM (active)

**Q:** Tell us which Potency value is on record for O=C(Cc1ccccc1)N1CCN(C2CCCCCC2)CC1
**A:** 31.6 µM (active)

**Q:** Tell us which Potency value is on record for c1ccc2sc(C3CCCNC3)nc2c1 (configuration not stated)
**A:** 44.7 µM (active)

**Q:** Tell us which Potency value is on record for Cc1noc(C)c1CSc1nc2cc(S(=O)(=O)N3CCOCC3)ccc2o1
**A:** 3.16 µM (active)
